experimental target: T1, mouse NMUR1-ATG (mouse, UniProt O55040 1-428)
T1 sequence (looked up): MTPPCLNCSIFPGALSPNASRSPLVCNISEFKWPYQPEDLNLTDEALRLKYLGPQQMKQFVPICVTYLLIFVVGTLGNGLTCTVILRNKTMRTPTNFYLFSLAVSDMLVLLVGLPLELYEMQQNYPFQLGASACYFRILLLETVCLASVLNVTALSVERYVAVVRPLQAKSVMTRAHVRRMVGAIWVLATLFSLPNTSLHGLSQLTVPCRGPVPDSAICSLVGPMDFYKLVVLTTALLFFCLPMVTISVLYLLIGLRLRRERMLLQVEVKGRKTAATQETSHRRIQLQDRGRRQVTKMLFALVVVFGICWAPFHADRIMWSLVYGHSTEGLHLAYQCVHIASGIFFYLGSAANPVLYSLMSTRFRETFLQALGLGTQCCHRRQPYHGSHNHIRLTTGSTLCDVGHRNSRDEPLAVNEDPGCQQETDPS
test method notes: cell-based or functional assay
Starred links: 1 amine or outer side, 2 acyl side, 3 side chain; linkers in the order of their positions; H or OH if unused. Non-standard residues stand in square brackets, D forms with d. Ttds = 1-amino-4,7,10-trioxa-13-tridecanamine succinimic acid spacer, O=C(CCC(=O)[*:2])NCCCOCCOCCOCCCN[*:1]; (PEG)2 40 kDa = branched PEG of 40 kDa linked via the Cys side-chain thiol (code C2 = Cys(PEG)2 40 kDa)

{"binder": "Ac-C((PEG)2 40 kDa)[Ttds]FLFRPRN-NH2 [NMU16]", "% Activity (FLIPR) [%]": 100}
